B1: NP_009172.2 (parent)
chain: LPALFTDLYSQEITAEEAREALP

Variants of: B1
experiment_notes: protein stability index of a GFP-peptide fusion (GPS, HEK-293T) (PSI 1-6); higher = more stable;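 note: lentivirally expressed fusion library, cells FACS-sorted into six equal-sized GFP/DsRed ratio bins, PSI computed from sequencing read fractions per bin weighted by bin number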
experimental_conditions: c terminus: native
Measured protein stability index, listed per entry.
outcome_measure: protein stability index

monomer_sequence	outcome_measure	meas_value
LPALFYDLYSQEITAEEAREALP [T6Y]	protein stability index	4.5
LPALFTDLYSQEITAEVAREALP [E17V]	protein stability index	2.43
LPALFTDLYSTEITAEEAREALP [Q11T]	protein stability index	3.21
LPALFTHLYSQEITAEEAREALP [D7H]	protein stability index	3.13
LPRLFTDLYSQEITAEEAREALP [A3R]	protein stability index	2.43
LPALFTDLYSQEITAMEAREALP [E16M]	protein stability index	2.58
LFALFTDLYSQEITAEEAREALP [P2F]	protein stability index	2.54
LPALFTDLYSQEITEEEAREALP [A15E]	protein stability index	2.55
LPALFTDLYSQEITAEEAREAQP [L22Q]	protein stability index	3.01
LPALFTDLYSQEITAPEAREALP [E16P]	protein stability index	3.16
LPALFTDLYSQEITAEEAKEALP [R19K]	protein stability index	2.79
LPALFTDLYSSEITAEEAREALP [Q11S]	protein stability index	3.04
LPALFTDLYSQEITAEEAREAEP [L22E]	protein stability index	2.69
LPALFTDAYSQEITAEEAREALP [L8A]	protein stability index	3.14
LPALFTDHYSQEITAEEAREALP [L8H]	protein stability index	2.56
LPALFTDLYSQEITAEEAREALK [P23K]	protein stability index	4.82
LPALFTDLYSQEIEAEEAREALP [T14E]	protein stability index	2.66
LPALFTDLYLQEITAEEAREALP [S10L]	protein stability index	2.3
LPALFTSLYSQEITAEEAREALP [D7S]	protein stability index	3.08
LPYLFTDLYSQEITAEEAREALP [A3Y]	protein stability index	2.62
LPALFKDLYSQEITAEEAREALP [T6K]	protein stability index	3.32
LPALFTDLYSQEITAEEPREALP [A18P]	protein stability index	3.08
LPALFTDLYSQEITQEEAREALP [A15Q]	protein stability index	2.84
GPALFTDLYSQEITAEEAREALP [L1G]	protein stability index	2.77
LPALFTDLYSQEITATEAREALP [E16T]	protein stability index	2.62
LPADFTDLYSQEITAEEAREALP [L4D]	protein stability index	4.87
LPALFTDLYSIEITAEEAREALP [Q11I]	protein stability index	2.52
LSALFTDLYSQEITAEEAREALP [P2S]	protein stability index	2.71
LPALFTALYSQEITAEEAREALP [D7A]	protein stability index	2.88
LPALFTDLYSQEGTAEEAREALP [I13G]	protein stability index	3.81
LPALFTDLYSQEITYEEAREALP [A15Y]	protein stability index	2.72
LPALFTDIYSQEITAEEAREALP [L8I]	protein stability index	2.59
LPALFTDLYSWEITAEEAREALP [Q11W]	protein stability index	2.63
LLALFTDLYSQEITAEEAREALP [P2L]	protein stability index	2.48
LPALFTDLTSQEITAEEAREALP [Y9T]	protein stability index	2.74
LPALFTDLYSQEITAEEWREALP [A18W]	protein stability index	2.67
LPALFTDLYSQEITASEAREALP [E16S]	protein stability index	2.86
LPALFTDLYSQEITAEYAREALP [E17Y]	protein stability index	2.32
LPALFTRLYSQEITAEEAREALP [D7R]	protein stability index	2.77
LPALFTDLLSQEITAEEAREALP [Y9L]	protein stability index	2.39
LPACFTDLYSQEITAEEAREALP [L4C]	protein stability index	2.64
LPALFTDLYSQEITANEAREALP [E16N]	protein stability index	2.81
LPSLFTDLYSQEITAEEAREALP [A3S]	protein stability index	2.74
LPALFTDLYSQEITAEAAREALP [E17A]	protein stability index	2.39
LPALFTDLYSQEITAEEAREAFP [L22F]	protein stability index	3.49
LPALFTDLYSEEITAEEAREALP [Q11E]	protein stability index	2.88

The reported numbers originate from the supplement of paper PMC10567573.
